TARGET_UNDER_TEST: Human PD-L1/PD-1 (Homo sapiens, UniProt Q9NZQ7)
Construct: TVMV protease cleavage site (C); made in house; host or cells: HEK293T cells
Sequence (Q9NZQ7 with tags, fused parts or gaps): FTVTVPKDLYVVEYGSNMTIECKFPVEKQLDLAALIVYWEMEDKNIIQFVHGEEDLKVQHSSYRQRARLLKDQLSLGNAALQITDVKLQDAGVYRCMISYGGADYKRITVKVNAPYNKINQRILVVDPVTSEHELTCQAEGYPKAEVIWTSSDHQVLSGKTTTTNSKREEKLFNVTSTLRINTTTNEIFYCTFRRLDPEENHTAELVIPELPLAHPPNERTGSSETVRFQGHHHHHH
ASSAY_REMARKS: HTRF Human PD-L1/PD-1 binding assay (PD-1-Ig/PD-L1-His)
CONDITION_DETAILS: PD-L1-His 10 nM, PD-1-Ig 20 nM; class symbol; read-out: HTRF Human PD-L1/PD-1 Binding Assay IC50 Range
Where a SMILES comes first, the peptide text is derived from it. Bridges are numbered along the chain shown (N, C = ends). [ ]: non-standard residue; d: D form. ξ: configuration not given here. Phe(4-F) = N[C@@H](Cc1ccc(F)cc1)C(=O)O; Bta = N[C@@H](Cc1csc2ccccc12)C(=O)O; Hyp = O=C(O)[C@@H]1C[C@@H](O)CN1; NMeF = CN[C@@H](Cc1ccccc1)C(=O)O; NMeNle = CCCC[C@H](NC)C(=O)O; Pip = O=C(O)[C@@H]1CCCCN1; hSer = N[C@@H](CCO)C(=O)O; NMeA = CN[C@@H](C)C(=O)O; Orn = NCCC[C@H](N)C(=O)O; Dab = NCC[C@H](N)C(=O)O; Dap = NC[C@H](N)C(=O)O; ξPip = O=C(O)C1CCCCN1; ξC = NC(CS)C(=O)O
Reported IC50 is given for each of the following compounds.
RECORDED_METRIC: IC50

INSERT INTO results (compound, target_under_test, value_observed) VALUES
  ('CCCC[C@H]1C(=O)N(C)[C@@H](CCCC)C(=O)N[C@@H](CCCNC(=N)N)C(=O)NC(C(=O)NCC(N)=O)CSCC(=O)N[C@@H](Cc2ccc(O)cc2)C(=O)N(C)[C@@H](C)C(=O)N[C@@H](CC(N)=O)C(=O)N2CCC[C@H]2C(=O)N[C@@H](CCO)C(=O)N[C@@H](CCO)C(=O)N2CCC[C@H]2C(=O)N[C@@H](Cc2c[nH]c3ccccc23)C(=O)N[C@@H](CO)C(=O)N[C@@H](Cc2csc3ccccc23)C(=O)N1C (some centres unmarked) [Example 10020] ({CH2CO}-Y[NMeA]NP[hSer][hSer]PWS[Bta][NMeNle][NMeNle]R[ξC]G-NH2; thioether N-14)', 'Human PD-L1/PD-1 (Homo sapiens, UniProt Q9NZQ7)', '1 to 9.9 nM'),
  ('CCCC[C@H]1C(=O)N(C)[C@@H](CCCC)C(=O)N[C@@H](CCN)C(=O)NC(C(=O)NCC(N)=O)CSCC(=O)N[C@@H](Cc2ccc(O)cc2)C(=O)N(C)[C@@H](C)C(=O)N[C@@H](CC(N)=O)C(=O)N2CCC[C@H]2C(=O)N[C@@H](CC(N)=O)C(=O)N[C@@H](CC(C)C)C(=O)N2CCC[C@H]2C(=O)N[C@@H](Cc2c[nH]c3ccccc23)C(=O)N[C@@H](CO)C(=O)N[C@@H](Cc2c[nH]c3ccccc23)C(=O)N1C (some centres unmarked) [Example 9162] ({CH2CO}-Y[NMeA]NPNLPWSW[NMeNle][NMeNle][Dab][ξC]G-NH2; thioether N-14)', 'Human PD-L1/PD-1 (Homo sapiens, UniProt Q9NZQ7)', '1 to 9.9 nM'),
  ('CCCC[C@H]1C(=O)N(C)[C@@H](CCCC)C(=O)N[C@@H](CCC(=O)O)C(=O)N[C@H](C(=O)NCC(N)=O)CSCC(=O)N[C@@H](Cc2ccc(O)cc2)C(=O)N(C)[C@@H](C)C(=O)N[C@@H](CC(N)=O)C(=O)N2CCC[C@H]2C(=O)N[C@@H](CN)C(=O)N[C@@H](CC(C)C)C(=O)N2C[C@H](O)C[C@H]2C(=O)N[C@@H](Cc2c[nH]c3ccccc23)C(=O)N[C@@H](CO)C(=O)N[C@@H](Cc2c[nH]c3ccccc23)C(=O)N1C [Example 5165] ({CH2CO}-Y[NMeA]NP[Dap]L[Hyp]WSW[NMeNle][NMeNle]ECG-NH2; thioether N-14)', 'Human PD-L1/PD-1 (Homo sapiens, UniProt Q9NZQ7)', '1 to 9.9 nM'),
  ('CCCC[C@H]1C(=O)N(C)[C@@H](CCCC)C(=O)N[C@@H](C)C(=O)N[C@H](C(=O)NCC(N)=O)CSCC(=O)N[C@@H](Cc2ccc(O)cc2)C(=O)N2CCCC[C@H]2C(=O)N[C@@H](CC(=O)O)C(=O)N2CCC[C@H]2C(=O)N[C@@H](Cc2cnc[nH]2)C(=O)N[C@@H](CCC(N)=O)C(=O)N2C[C@H](O)C[C@H]2C(=O)N[C@@H](Cc2c[nH]c3ccccc23)C(=O)N[C@@H](CO)C(=O)N[C@@H](Cc2csc3ccccc23)C(=O)N1C [Example 1508] ({CH2CO}-Y[Pip]DPHQ[Hyp]WS[Bta][NMeNle][NMeNle]ACG-NH2; thioether N-14)', 'Human PD-L1/PD-1 (Homo sapiens, UniProt Q9NZQ7)', '1 to 9.9 nM'),
  ('CCCC[C@H]1C(=O)N2CCC[C@@H]2C(=O)N[C@@H](CC(=O)O)C(=O)N[C@@H](C(C)C)C(=O)N(C)[C@@H](Cc2ccccc2)C(=O)N[C@@H](CC(=O)O)C(=O)N2CCC[C@@H]2C(=O)N[C@@H](Cc2c[nH]c3ccccc23)C(=O)N[C@@H](Cc2ccc(O)cc2)C(=O)N[C@@H](CC(C)C)C(=O)N[C@H](C(=O)NCC(N)=O)CSCC(=O)N[C@@H](Cc2ccc(F)cc2)C(=O)N(C)[C@@H](Cc2ccccc2)C(=O)N1C [Example 10106] ({CH2CO}-[Phe(4-F)][NMeF][NMeNle][dP]DV[NMeF]D[dP]WYLCG-NH2; thioether N-13)', 'Human PD-L1/PD-1 (Homo sapiens, UniProt Q9NZQ7)', '1 to 9.9 nM'),
  ('CCCC[C@H]1C(=O)N[C@@H](CC(N)=O)C(=O)N2CCC[C@H]2C(=O)N[C@@H](CO)C(=O)N[C@@H](CCO)C(=O)N2C[C@H](O)C[C@H]2C(=O)N[C@@H](Cc2c[nH]c3ccccc23)C(=O)N[C@@H](CCCN)C(=O)N[C@@H](Cc2c[nH]c3ccccc23)C(=O)N(C)[C@@H](C)C(=O)N(C)[C@@H](C)C(=O)N[C@@H](CCCNC(=N)N)C(=O)NC(C(=O)NCC(N)=O)CSCC(=O)N[C@@H](Cc2ccc(O)cc2)C(=O)N1C (some centres unmarked) [Example 10201] ({CH2CO}-Y[NMeNle]NPS[hSer][Hyp]W[Orn]W[NMeA][NMeA]R[ξC]G-NH2; thioether N-14)', 'Human PD-L1/PD-1 (Homo sapiens, UniProt Q9NZQ7)', '1000 to 10000 nM'),
  ('CCCC[C@H]1C(=O)N(C)[C@@H](CCCC)C(=O)N[C@@H](CCCN)C(=O)N[C@H](C(=O)NCC(N)=O)CSCC(=O)N[C@@H](Cc2ccc(O)cc2)C(=O)N2CCCCC2C(=O)N[C@@H](CC(=O)O)C(=O)N2CCC[C@H]2C(=O)N[C@@H](CN)C(=O)N[C@@H](CCC(=O)O)C(=O)N2C[C@H](O)C[C@H]2C(=O)N[C@@H](Cc2c[nH]c3ccccc23)C(=O)N[C@@H](CO)C(=O)N[C@@H](Cc2c[nH]c3ccccc23)C(=O)N1C (some centres unmarked) [Example 1530] ({CH2CO}-Y[ξPip]DP[Dap]E[Hyp]WSW[NMeNle][NMeNle][Orn]CG-NH2; thioether N-14)', 'Human PD-L1/PD-1 (Homo sapiens, UniProt Q9NZQ7)', '10 to 99.9 nM'),
  ('CCCC[C@H]1C(=O)N(C)[C@@H](CCCC)C(=O)N[C@@H](CCCN)C(=O)N[C@H](C(=O)NCC(N)=O)CSCC(=O)N[C@@H](Cc2ccc(O)cc2)C(=O)N2CCOCC2C(=O)N[C@@H](CC(N)=O)C(=O)N2CCC[C@H]2C(=O)N[C@@H](Cc2c[nH]cn2)C(=O)N[C@@H](CC(C)C)C(=O)N2C[C@H](O)C[C@H]2C(=O)N[C@@H](Cc2c[nH]c3ccccc23)C(=O)N[C@@H](CO)C(=O)N[C@@H](Cc2c[nH]c3ccccc23)C(=O)N1C (some centres unmarked)', 'Human PD-L1/PD-1 (Homo sapiens, UniProt Q9NZQ7)', '1 to 9.9 nM');

From: patent US10538555B2
